Target: T1, activated human complement C1s (human, UniProt P09871 16-688)
T1 construct: also called aC1s; active C1s
T1 sequence: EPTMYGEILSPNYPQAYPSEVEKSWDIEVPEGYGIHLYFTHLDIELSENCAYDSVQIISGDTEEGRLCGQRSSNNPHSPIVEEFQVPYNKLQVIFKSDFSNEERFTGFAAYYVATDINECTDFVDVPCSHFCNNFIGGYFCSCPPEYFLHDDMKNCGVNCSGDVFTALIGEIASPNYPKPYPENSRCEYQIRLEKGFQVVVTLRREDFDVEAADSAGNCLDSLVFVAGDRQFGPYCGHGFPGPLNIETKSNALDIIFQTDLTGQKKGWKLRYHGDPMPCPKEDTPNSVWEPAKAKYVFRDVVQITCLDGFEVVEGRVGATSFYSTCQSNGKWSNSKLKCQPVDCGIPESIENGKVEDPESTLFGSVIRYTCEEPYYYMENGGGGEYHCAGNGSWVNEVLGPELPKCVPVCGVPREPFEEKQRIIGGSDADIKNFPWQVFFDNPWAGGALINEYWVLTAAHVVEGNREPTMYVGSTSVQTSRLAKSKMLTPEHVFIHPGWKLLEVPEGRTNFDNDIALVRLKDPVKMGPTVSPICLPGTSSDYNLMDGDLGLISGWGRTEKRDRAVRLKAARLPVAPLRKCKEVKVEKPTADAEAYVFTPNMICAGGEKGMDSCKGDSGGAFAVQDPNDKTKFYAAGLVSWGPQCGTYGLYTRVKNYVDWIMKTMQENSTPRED
Experiment: kinetic characterization of binding to active human C1s; instrument not stated
measurement type: kon (M⁻¹ s⁻¹)
Lab book: enter the figure in M⁻¹ s⁻¹, no units written.

Reported kon for humanized TNT005 variant VH variant 1+Vk variant 2 (antibody, V domains shown, also called VH variant 1 + VL variant 2) VH: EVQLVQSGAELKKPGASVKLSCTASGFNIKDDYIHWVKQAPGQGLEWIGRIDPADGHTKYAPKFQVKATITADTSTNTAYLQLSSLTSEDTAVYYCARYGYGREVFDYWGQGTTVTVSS VL: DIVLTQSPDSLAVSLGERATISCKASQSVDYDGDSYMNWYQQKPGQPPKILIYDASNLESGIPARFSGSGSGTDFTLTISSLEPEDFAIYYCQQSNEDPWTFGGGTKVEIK : what is it?
818000

Dear colleague, I am looking for the recorded kon of the following binder: humanized TNT005 variant VH variant 1+Vk variant 5 (antibody, V domains shown, also called VH variant 1 + VL variant 5) VH: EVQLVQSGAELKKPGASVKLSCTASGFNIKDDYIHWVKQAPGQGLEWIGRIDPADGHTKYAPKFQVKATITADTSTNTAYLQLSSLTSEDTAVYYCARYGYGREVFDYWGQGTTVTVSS VL: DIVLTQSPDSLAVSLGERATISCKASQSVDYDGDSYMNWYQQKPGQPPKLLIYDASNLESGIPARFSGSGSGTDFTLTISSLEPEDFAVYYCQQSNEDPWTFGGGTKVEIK
776000

In the following, a different binder is considered.
Any idea what its kon is? The binder is humanized TNT005 variant VH variant 3+Vk variant 2 (antibody, V domains shown, also called VH variant 3 + VL variant 2) VH: QVQLVQSGAEVKKPGASVKLSCTASGFNIKDDYIHWVKQAPGQGLEWIGRIDPADGHTKYAPKFQVKVTITADTSTSTAYLELSSLRSEDTAVYYCARYGYGREVFDYWGQGTTVTVSS VL: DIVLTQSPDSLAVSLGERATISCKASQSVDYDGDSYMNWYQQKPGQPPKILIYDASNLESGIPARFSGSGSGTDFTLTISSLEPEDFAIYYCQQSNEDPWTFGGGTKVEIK
838000
